Recorded measurements of Activity, one per entry
- assay_system: Protein cereblon/Cyclin-dependent kinase 12 (Homo sapiens) (UniProt Q9NYV4+Q96SW2)
- Sequence (Q96SW2 whole entry, looked up): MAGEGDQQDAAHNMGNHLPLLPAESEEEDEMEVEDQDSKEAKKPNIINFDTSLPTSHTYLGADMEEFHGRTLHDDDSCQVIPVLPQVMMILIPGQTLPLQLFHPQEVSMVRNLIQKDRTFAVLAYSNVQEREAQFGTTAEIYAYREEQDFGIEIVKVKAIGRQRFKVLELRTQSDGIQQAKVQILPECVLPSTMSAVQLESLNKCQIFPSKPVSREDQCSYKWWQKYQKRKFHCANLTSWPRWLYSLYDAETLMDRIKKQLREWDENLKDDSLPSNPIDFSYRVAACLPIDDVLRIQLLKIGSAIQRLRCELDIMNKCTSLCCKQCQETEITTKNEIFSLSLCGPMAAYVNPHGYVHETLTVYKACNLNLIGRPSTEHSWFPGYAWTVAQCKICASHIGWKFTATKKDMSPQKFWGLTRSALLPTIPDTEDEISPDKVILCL
- Sequence (Q9NYV4 whole entry, looked up): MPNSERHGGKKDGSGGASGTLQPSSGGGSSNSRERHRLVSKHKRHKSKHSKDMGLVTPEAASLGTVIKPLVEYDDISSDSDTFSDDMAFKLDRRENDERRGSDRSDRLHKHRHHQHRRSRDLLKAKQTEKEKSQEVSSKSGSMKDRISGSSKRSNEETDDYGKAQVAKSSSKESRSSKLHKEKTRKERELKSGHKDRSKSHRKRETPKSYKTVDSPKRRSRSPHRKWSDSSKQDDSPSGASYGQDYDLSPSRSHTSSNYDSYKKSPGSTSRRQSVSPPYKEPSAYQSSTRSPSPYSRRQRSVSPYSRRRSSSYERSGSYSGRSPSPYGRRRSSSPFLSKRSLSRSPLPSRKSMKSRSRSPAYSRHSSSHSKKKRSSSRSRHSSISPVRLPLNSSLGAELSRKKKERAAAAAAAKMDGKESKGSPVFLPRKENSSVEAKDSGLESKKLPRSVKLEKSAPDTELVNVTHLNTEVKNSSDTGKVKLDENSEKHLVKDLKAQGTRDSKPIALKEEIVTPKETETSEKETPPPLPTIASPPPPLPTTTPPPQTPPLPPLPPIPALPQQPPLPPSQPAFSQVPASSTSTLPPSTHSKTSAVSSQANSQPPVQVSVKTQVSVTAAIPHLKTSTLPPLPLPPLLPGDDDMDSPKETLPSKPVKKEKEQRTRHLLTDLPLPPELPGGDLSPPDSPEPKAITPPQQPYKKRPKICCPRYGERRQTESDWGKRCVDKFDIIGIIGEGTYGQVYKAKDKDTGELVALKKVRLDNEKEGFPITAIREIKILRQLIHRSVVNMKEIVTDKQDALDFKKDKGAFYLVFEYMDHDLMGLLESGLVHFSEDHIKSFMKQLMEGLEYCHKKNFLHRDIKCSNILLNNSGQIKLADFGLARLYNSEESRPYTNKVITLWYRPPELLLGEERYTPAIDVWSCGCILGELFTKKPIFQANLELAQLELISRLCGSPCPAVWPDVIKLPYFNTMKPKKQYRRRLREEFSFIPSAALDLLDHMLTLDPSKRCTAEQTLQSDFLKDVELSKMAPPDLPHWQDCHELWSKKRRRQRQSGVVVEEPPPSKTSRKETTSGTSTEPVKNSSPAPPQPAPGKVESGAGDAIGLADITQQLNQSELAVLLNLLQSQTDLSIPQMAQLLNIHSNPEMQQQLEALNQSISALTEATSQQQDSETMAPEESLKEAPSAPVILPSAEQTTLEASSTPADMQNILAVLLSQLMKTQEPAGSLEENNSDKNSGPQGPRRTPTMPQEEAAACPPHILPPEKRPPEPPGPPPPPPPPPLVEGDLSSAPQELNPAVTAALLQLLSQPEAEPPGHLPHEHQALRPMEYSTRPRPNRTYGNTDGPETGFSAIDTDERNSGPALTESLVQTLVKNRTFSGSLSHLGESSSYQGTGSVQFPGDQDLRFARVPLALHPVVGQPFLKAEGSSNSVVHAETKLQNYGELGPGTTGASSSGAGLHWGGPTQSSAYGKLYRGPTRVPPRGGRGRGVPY
- procedure_details: PROTAC activity at CRBN/CDK12 in human Jurkat cells assessed as induction of CDK12 degradation at 100 nM incubated for 6 hrs by western blot analysis
- Assay type: cell-based

>  <compound>
O=C(COc1cccc2c1C(=O)N(C1CCC(=O)NC1=O)C2=O)NCCOCCOCCOCCN1CCC[C@@H](Nc2ncc(Cl)c(-c3c[nH]c4ccccc34)n2)C1 (stereo not given in full)

>  <assay_system>
Protein cereblon/Cyclin-dependent kinase 12 (Homo sapiens) (UniProt Q9NYV4+Q96SW2)

>  <Activity (%)>
80

$$$$
>  <compound>
O=C(COc1cccc2c1C(=O)N(C1CCC(=O)NC1=O)C2=O)NCCCCCCN1CCC[C@@H](Nc2ncc(Cl)c(-c3c[nH]c4ccccc34)n2)C1 (stereo not given in full)

>  <assay_system>
Protein cereblon/Cyclin-dependent kinase 12 (Homo sapiens) (UniProt Q9NYV4+Q96SW2)

>  <Activity (%)>
80

$$$$
>  <compound>
O=C(COc1cccc2c1C(=O)N(C1CCC(=O)NC1=O)C2=O)NCCCCCN1CCN(c2ccc(C(=O)N3CCC[C@@H](Nc4ncc(Cl)c(-c5c[nH]c6ccccc56)n4)C3)cc2)CC1 (stereo not given in full)

>  <assay_system>
Protein cereblon/Cyclin-dependent kinase 12 (Homo sapiens) (UniProt Q9NYV4+Q96SW2)

>  <Activity (%)>
80

$$$$
>  <compound>
O=C(COc1cccc2c1C(=O)N(C1CCC(=O)NC1=O)C2=O)NCCCCCCCN1CCC(C(=O)N2CCC[C@@H](Nc3ncc(Cl)c(-c4c[nH]c5ccccc45)n3)C2)CC1 (stereo not given in full)

>  <assay_system>
Protein cereblon/Cyclin-dependent kinase 12 (Homo sapiens) (UniProt Q9NYV4+Q96SW2)

>  <Activity (%)>
80

$$$$
>  <compound>
O=C(COc1cccc2c1C(=O)N(C1CCC(=O)NC1=O)C2=O)NCCCN1CCN(c2ccc(C(=O)N3CCC[C@@H](Nc4ncc(Cl)c(-c5c[nH]c6ccccc56)n4)C3)cc2)CC1 (stereo not given in full)

>  <assay_system>
Protein cereblon/Cyclin-dependent kinase 12 (Homo sapiens) (UniProt Q9NYV4+Q96SW2)

>  <Activity (%)>
60

$$$$
>  <compound>
O=C(COc1cccc2c1C(=O)N(C1CCC(=O)NC1=O)C2=O)NCCCCCCCN1CCC[C@@H](Nc2ncc(Cl)c(-c3c[nH]c4ccccc34)n2)C1 (stereo not given in full)

>  <assay_system>
Protein cereblon/Cyclin-dependent kinase 12 (Homo sapiens) (UniProt Q9NYV4+Q96SW2)

>  <Activity (%)>
90

$$$$
>  <compound>
Cc1ncsc1-c1ccc([C@H](C)NC(=O)[C@@H]2C[C@@H](O)CN2C(=O)[C@@H](NC(=O)CCCCCCCCCCN2CCC[C@@H](Nc3ncc(Cl)c(Nc4ccccc4S(=O)(=O)C(C)C)n3)C2)C(C)(C)C)cc1

>  <assay_system>
Protein cereblon/Cyclin-dependent kinase 12 (Homo sapiens) (UniProt Q9NYV4+Q96SW2)

>  <Activity (%)>
90

$$$$
>  <compound>
O=C(COc1cccc2c1C(=O)N(C1CCC(=O)NC1=O)C2=O)NCCCCCCN1CCC(C(=O)N2CCC[C@@H](Nc3ncc(Cl)c(-c4c[nH]c5ccccc45)n3)C2)CC1 (stereo not given in full)

>  <assay_system>
Protein cereblon/Cyclin-dependent kinase 12 (Homo sapiens) (UniProt Q9NYV4+Q96SW2)

>  <Activity (%)>
80

$$$$
>  <compound>
CC(C)S(=O)(=O)c1ccccc1Nc1nc(N[C@@H]2CCCN(CCCCCCCNC(=O)COc3cccc4c3C(=O)N(C3CCC(=O)NC3=O)C4=O)C2)ncc1Cl (stereo not given in full)

>  <assay_system>
Protein cereblon/Cyclin-dependent kinase 12 (Homo sapiens) (UniProt Q9NYV4+Q96SW2)

>  <Activity (%)>
90

$$$$
>  <compound>
Cc1ncsc1-c1ccc([C@H](C)NC(=O)[C@@H]2C[C@@H](O)CN2C(=O)[C@@H](NC(=O)CCOCCOCCOCCN2CCC[C@@H](Nc3ncc(Cl)c(Nc4ccccc4S(=O)(=O)C(C)C)n3)C2)C(C)(C)C)cc1

>  <assay_system>
Protein cereblon/Cyclin-dependent kinase 12 (Homo sapiens) (UniProt Q9NYV4+Q96SW2)

>  <Activity (%)>
90

$$$$
